Measured values drawn from a collection of fitness landscapes (doi:10.1016/j.celrep.2020.107928) for this set.

B1: Caulobacter ParB omega fusion; a variant is named by its letters at X, in order, B8GW30 (parent)
chain: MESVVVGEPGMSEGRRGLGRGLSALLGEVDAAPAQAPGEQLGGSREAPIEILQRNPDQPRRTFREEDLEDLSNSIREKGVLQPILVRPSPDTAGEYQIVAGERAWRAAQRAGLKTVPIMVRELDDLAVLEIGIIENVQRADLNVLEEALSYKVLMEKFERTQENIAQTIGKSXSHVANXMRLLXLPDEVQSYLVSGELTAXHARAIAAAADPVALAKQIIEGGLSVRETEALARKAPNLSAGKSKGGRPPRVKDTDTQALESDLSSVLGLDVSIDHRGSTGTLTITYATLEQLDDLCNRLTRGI

Variants of: B1
TEST_DESCRIPTION: one-hybrid fitness for binding NBS DNA (the Noc-binding site; scaled: cognate 1, non-cognate 0); higher = stronger binding
CONDITION_INFO: with NBS DNA site
Over roughly 81,000 sequences, “one-hybrid fitness for binding NBS DNA” has its median near -0.1; the highest 2% begin near 0.36. Many of the other results were omitted from the sample, so the highest values are more common in it than they were.
The reader will find reported one-hybrid fitness for binding NBS DNA values listed item by item below.

>  <ALTERATION>
RPMT

>  <one-hybrid fitness for binding NBS DNA>
≤ 0.2

$$$$
>  <ALTERATION>
ACNS

>  <one-hybrid fitness for binding NBS DNA>
≤ 0.2

$$$$
>  <ALTERATION>
QRHD

>  <one-hybrid fitness for binding NBS DNA>
0.294

$$$$
>  <ALTERATION>
HRAG

>  <one-hybrid fitness for binding NBS DNA>
≤ 0.2

$$$$
>  <ALTERATION>
KCDL

>  <one-hybrid fitness for binding NBS DNA>
≤ 0.2

$$$$
>  <ALTERATION>
EAKN

>  <one-hybrid fitness for binding NBS DNA>
≤ 0.2

$$$$
>  <ALTERATION>
QPTA

>  <one-hybrid fitness for binding NBS DNA>
≤ 0.2

$$$$
>  <ALTERATION>
RCNM

>  <one-hybrid fitness for binding NBS DNA>
≤ 0.2

$$$$
>  <ALTERATION>
RRVI

>  <one-hybrid fitness for binding NBS DNA>
≤ 0.2

$$$$
>  <ALTERATION>
RRWS

>  <one-hybrid fitness for binding NBS DNA>
0.628

$$$$
>  <ALTERATION>
QRHN

>  <one-hybrid fitness for binding NBS DNA>
0.437

$$$$
>  <ALTERATION>
RIWP

>  <one-hybrid fitness for binding NBS DNA>
≤ 0.2

$$$$
>  <ALTERATION>
DEKT

>  <one-hybrid fitness for binding NBS DNA>
≤ 0.2

$$$$
>  <ALTERATION>
QRHF

>  <one-hybrid fitness for binding NBS DNA>
0.347

$$$$
>  <ALTERATION>
GTTP

>  <one-hybrid fitness for binding NBS DNA>
≤ 0.2

$$$$
>  <ALTERATION>
RTKS

>  <one-hybrid fitness for binding NBS DNA>
0.622

$$$$
>  <ALTERATION>
IHVS

>  <one-hybrid fitness for binding NBS DNA>
≤ 0.2

$$$$
>  <ALTERATION>
RRMY

>  <one-hybrid fitness for binding NBS DNA>
0.338

$$$$
>  <ALTERATION>
RCLT

>  <one-hybrid fitness for binding NBS DNA>
0.436

$$$$
>  <ALTERATION>
AWHA

>  <one-hybrid fitness for binding NBS DNA>
≤ 0.2

$$$$
>  <ALTERATION>
HIRY

>  <one-hybrid fitness for binding NBS DNA>
≤ 0.2

$$$$
>  <ALTERATION>
RGQM

>  <one-hybrid fitness for binding NBS DNA>
≤ 0.2

$$$$
>  <ALTERATION>
RKMT

>  <one-hybrid fitness for binding NBS DNA>
0.587

$$$$
>  <ALTERATION>
QCTA

>  <one-hybrid fitness for binding NBS DNA>
0.326

$$$$
>  <ALTERATION>
QQFT

>  <one-hybrid fitness for binding NBS DNA>
0.435

$$$$
>  <ALTERATION>
TCIC

>  <one-hybrid fitness for binding NBS DNA>
≤ 0.2

$$$$
>  <ALTERATION>
RSMT

>  <one-hybrid fitness for binding NBS DNA>
0.305

$$$$
>  <ALTERATION>
RRVG

>  <one-hybrid fitness for binding NBS DNA>
0.298

$$$$
>  <ALTERATION>
WTRW

>  <one-hybrid fitness for binding NBS DNA>
≤ 0.2

$$$$
>  <ALTERATION>
RIFS

>  <one-hybrid fitness for binding NBS DNA>
0.214

$$$$
>  <ALTERATION>
RRNM

>  <one-hybrid fitness for binding NBS DNA>
0.428

$$$$
>  <ALTERATION>
PHHR

>  <one-hybrid fitness for binding NBS DNA>
≤ 0.2

$$$$
>  <ALTERATION>
RIWD

>  <one-hybrid fitness for binding NBS DNA>
≤ 0.2

$$$$
>  <ALTERATION>
KEWT

>  <one-hybrid fitness for binding NBS DNA>
≤ 0.2

$$$$
>  <ALTERATION>
QRHH

>  <one-hybrid fitness for binding NBS DNA>
0.61

$$$$
>  <ALTERATION>
SFTI

>  <one-hybrid fitness for binding NBS DNA>
≤ 0.2

$$$$
>  <ALTERATION>
RFMT

>  <one-hybrid fitness for binding NBS DNA>
≤ 0.2

$$$$
>  <ALTERATION>
QQAH

>  <one-hybrid fitness for binding NBS DNA>
0.284

$$$$
>  <ALTERATION>
AAGK

>  <one-hybrid fitness for binding NBS DNA>
≤ 0.2

$$$$
>  <ALTERATION>
MVAC

>  <one-hybrid fitness for binding NBS DNA>
≤ 0.2

$$$$
>  <ALTERATION>
QRHS

>  <one-hybrid fitness for binding NBS DNA>
0.718

$$$$
>  <ALTERATION>
NCLY

>  <one-hybrid fitness for binding NBS DNA>
≤ 0.2

$$$$
>  <ALTERATION>
EPGN

>  <one-hybrid fitness for binding NBS DNA>
≤ 0.2

$$$$
>  <ALTERATION>
QCHH

>  <one-hybrid fitness for binding NBS DNA>
0.333

$$$$
>  <ALTERATION>
QRHI

>  <one-hybrid fitness for binding NBS DNA>
0.358

$$$$
>  <ALTERATION>
RCKI

>  <one-hybrid fitness for binding NBS DNA>
≤ 0.2

$$$$
>  <ALTERATION>
EKCM

>  <one-hybrid fitness for binding NBS DNA>
≤ 0.2

$$$$
